# assay.notes: Apparent permeability across apical to basolateral side in human Caco-2 cells at pH 7.4
# Type: ADME, cell-based
# assay.context: Caco-2, pH 7.4
measured.metric: Papp A→B

>>> df
                              line_notation   measured_value
0  COc1ccc(C(=O)Nc2cccc([C@@]3(C)O[C@H]4CO[C@@H]5N4[C@H]3O[C@]5(C)c3cccc(NC(=O)c4ccc(OC)cc4)c3)c2)cc1  11.9 ×10⁻⁶ cm/s

* * *

# study.target: Orexin/Hypocretin receptor type 1 (Homo sapiens)
# Sequence (O43613 whole entry): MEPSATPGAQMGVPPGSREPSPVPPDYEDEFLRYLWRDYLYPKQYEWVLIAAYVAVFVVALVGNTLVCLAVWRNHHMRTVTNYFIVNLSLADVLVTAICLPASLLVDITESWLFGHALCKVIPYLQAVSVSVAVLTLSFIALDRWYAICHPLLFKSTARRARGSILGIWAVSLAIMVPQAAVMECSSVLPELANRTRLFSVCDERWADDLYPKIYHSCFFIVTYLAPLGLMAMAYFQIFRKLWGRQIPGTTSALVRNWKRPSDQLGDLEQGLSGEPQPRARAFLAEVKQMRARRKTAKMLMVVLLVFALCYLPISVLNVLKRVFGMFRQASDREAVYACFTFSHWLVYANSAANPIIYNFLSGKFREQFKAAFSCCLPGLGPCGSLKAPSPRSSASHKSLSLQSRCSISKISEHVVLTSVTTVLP
# assay.notes: Antagonist activity at human OX1R expressed in CHO-K1 cells assessed as inhibition of orexin-A-induced increase in calcium mobilization preincubated for 15 mins followed orexin-A stimulation by Fura-2-AM dye based fluorescence assay
pKi: −log10 of the molar value.
measured.metric: pKi

                                   molecule  measured_value
0  C[C@]1(c2cccc(NC(=O)c3ccccc3)c2)O[C@H]2CO[C@@H]3N2[C@H]1O[C@]3(C)c1cccc(NC(=O)c2ccccc2)c1            7.60
1  COc1ccc(C(=O)Nc2cccc(C3(C)OC4COC5N4C3OC5(C)c3cccc(NC(=O)c4ccc(OC)cc4)c3)c2)cc1 (mixture of isomers)            7.93
2  CN(C)c1ccc(C(=O)Nc2cccc([C@@]3(C)O[C@H]4CO[C@@H]5N4[C@H]3O[C@]5(C)c3cccc(NC(=O)c4ccc(N(C)C)cc4)c3)c2)cc1            8.41
